# Measurement Target: RSK2 (Homo sapiens (Human))
# Sequence (P51812 whole entry, species assumed): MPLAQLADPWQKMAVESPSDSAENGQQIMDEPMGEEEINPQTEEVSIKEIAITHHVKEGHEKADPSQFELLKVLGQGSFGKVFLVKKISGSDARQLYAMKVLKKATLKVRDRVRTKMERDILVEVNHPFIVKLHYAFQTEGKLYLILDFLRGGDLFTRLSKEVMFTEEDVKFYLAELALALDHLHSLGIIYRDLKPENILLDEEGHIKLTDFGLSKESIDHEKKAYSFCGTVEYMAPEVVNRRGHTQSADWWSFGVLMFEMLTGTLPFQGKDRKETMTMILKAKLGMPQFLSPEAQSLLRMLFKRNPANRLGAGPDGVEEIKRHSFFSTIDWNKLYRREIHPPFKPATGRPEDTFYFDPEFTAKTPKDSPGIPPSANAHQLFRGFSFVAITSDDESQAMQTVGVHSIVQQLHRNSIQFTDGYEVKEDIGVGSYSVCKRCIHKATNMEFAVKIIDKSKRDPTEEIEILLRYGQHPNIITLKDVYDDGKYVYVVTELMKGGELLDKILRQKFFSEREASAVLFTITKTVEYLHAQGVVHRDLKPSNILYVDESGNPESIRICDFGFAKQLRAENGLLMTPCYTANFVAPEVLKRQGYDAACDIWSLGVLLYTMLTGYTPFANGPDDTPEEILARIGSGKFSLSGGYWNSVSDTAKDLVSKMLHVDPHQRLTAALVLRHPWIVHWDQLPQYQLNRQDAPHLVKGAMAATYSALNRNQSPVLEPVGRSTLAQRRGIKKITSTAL
# Test Details: RSK2 kinase selectivity assay
# Type: biochemical
# Measurement Setup: 1 μM inhibitor concentration
Recorded measurements of percentage inhibition of RSK2, one per entry
Supply the numeric figure in percentage, leaving out any unit text.

Completed entries (count: 4):
>>> recorded_result("c1cc2[nH]nc3c2c(n1)N(C1CCCC1)CCC3")
5
>>> recorded_result("c1cc2[nH]nc3c2c(n1)N(C1CCC1)CCC3")
8
>>> recorded_result("CN1CCC(N2Cc3ccccc3-c3n[nH]c4ccnc2c34)CC1")
21
>>> recorded_result("CC(C)n1ncc2c1CN(C1CCN(C)CC1)c1nccc3[nH]nc-2c13")
54

What is its percentage inhibition of RSK2 for RSK2 (Homo sapiens (Human))? Entry: c1cc2[nH]nc3c2c(n1)N(C1CCOCC1)CCC3
0

###

Recorded measurements of percentage inhibition of MNK1, one per entry
# Measurement Target: MNK1 (Homo sapiens (Human), UniProt Q9BUB5)
# Test Details: MNK1 kinase selectivity assay
# Assay type: biochemical
# Measurement Setup: 1 μM inhibitor concentration
Supply the numeric figure in percentage, leaving out any unit text.

>>> recorded_result("CC(C)n1ncc2c1CN(C1CCN(C)CC1)c1nccc3[nH]nc-2c13 [Example 68]")
1
>>> recorded_result("CN1CCC(N2Cc3ccccc3-c3n[nH]c4ccnc2c34)CC1 [Example 55]")
50
>>> recorded_result("c1cc2[nH]nc3c2c(n1)N(C1CCOCC1)CCC3 [Example 29]")
0
>>> recorded_result("c1cc2[nH]nc3c2c(n1)N(C1CCC1)CCC3 [Example 22]")
0

Attention now shifts to the item below.
Value lookup for percentage inhibition of MNK1; key = c1cc2[nH]nc3c2c(n1)N(C1CCCC1)CCC3 [Example 23]
0

###

# Measurement Target: MLK1 (Homo sapiens (Human), UniProt P80192)
# Sequence (P80192 whole entry, species assumed): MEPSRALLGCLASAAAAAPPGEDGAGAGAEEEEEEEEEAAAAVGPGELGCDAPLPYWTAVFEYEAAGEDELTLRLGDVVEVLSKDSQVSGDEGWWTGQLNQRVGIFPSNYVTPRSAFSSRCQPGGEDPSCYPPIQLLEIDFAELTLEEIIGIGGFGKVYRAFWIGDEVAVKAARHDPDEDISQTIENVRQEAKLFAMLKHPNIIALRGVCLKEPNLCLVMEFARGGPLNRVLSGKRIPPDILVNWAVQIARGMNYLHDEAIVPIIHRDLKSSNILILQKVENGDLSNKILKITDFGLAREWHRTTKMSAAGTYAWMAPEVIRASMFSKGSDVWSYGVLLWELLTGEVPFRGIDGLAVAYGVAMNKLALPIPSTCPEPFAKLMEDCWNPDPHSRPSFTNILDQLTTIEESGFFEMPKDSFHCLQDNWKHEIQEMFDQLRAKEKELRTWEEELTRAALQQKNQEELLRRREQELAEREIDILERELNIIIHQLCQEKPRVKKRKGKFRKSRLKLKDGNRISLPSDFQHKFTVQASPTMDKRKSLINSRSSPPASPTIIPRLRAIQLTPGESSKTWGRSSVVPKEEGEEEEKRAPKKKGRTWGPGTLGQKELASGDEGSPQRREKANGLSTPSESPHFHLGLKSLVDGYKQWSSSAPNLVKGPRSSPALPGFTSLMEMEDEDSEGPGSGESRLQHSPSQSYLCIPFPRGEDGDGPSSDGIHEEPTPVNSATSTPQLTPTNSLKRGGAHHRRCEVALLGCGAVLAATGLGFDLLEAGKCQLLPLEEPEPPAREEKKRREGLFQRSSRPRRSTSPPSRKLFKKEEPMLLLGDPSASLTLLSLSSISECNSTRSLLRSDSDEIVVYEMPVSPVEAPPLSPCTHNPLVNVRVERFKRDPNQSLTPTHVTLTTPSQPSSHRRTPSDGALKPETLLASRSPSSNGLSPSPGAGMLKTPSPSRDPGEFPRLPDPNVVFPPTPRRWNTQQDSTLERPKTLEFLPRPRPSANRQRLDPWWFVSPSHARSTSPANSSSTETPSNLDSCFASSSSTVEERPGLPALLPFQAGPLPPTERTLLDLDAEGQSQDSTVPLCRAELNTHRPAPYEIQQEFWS
# Test Details: MLK1 kinase selectivity assay
# Format: biochemical
# Measurement Setup: 1 μM inhibitor concentration
Recorded measurements of percentage inhibition of MLK1, one per entry
Supply the numeric figure in percentage, leaving out any unit text.

Completed entries (count: 4):
>>> recorded_result("CC(C)n1ncc2c1CN(C1CCN(C)CC1)c1nccc3[nH]nc-2c13 [Example 68]")
12
>>> recorded_result("c1cc2[nH]nc3c2c(n1)N(C1CCCC1)CCC3 [Example 23]")
0
>>> recorded_result("CN1CCC(N2Cc3ccccc3-c3n[nH]c4ccnc2c34)CC1 [Example 55]")
24
>>> recorded_result("c1cc2[nH]nc3c2c(n1)N(C1CCOCC1)CCC3 [Example 29]")
0

Value lookup for percentage inhibition of MLK1; key = c1cc2[nH]nc3c2c(n1)N(C1CCC1)CCC3 [Example 22]
0

###

# Measurement Target: BRSK2 (Homo sapiens (Human), UniProt Q8IWQ3)
# Sequence (Q8IWQ3 whole entry, species assumed): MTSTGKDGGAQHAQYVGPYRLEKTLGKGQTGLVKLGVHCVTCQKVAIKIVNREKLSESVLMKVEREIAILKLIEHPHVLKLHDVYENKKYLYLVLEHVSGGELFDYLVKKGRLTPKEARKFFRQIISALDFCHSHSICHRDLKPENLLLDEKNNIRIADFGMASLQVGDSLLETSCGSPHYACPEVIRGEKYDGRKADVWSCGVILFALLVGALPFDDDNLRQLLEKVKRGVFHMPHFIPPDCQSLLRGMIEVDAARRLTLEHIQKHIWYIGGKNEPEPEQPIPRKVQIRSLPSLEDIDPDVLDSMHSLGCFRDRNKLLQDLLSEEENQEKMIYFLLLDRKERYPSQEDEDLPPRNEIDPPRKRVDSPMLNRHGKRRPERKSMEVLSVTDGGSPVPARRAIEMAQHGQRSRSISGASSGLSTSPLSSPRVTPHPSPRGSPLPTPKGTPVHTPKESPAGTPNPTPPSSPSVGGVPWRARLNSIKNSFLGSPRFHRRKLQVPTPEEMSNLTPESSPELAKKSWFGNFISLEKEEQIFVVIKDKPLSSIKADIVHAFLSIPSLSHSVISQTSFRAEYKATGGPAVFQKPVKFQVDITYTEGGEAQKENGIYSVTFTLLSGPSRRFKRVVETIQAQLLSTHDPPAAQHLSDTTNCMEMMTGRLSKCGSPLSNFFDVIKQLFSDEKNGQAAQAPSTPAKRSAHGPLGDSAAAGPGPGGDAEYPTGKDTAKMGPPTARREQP
# Test Details: BRSK2 kinase selectivity assay
# Format: biochemical
# Measurement Setup: 1 μM inhibitor concentration
Recorded measurements of percentage inhibition of BRSK2, one per entry
Please don't drop the unit; write it after the number.

Completed entries (count: 4):
>>> recorded_result("CC(C)n1ncc2c1CN(C1CCN(C)CC1)c1nccc3[nH]nc-2c13 [Example 68]")
"31 percentage"
>>> recorded_result("CN1CCC(N2Cc3ccccc3-c3n[nH]c4ccnc2c34)CC1 [Example 55]")
"50 percentage"
>>> recorded_result("c1cc2[nH]nc3c2c(n1)N(C1CCOCC1)CCC3 [Example 29]")
"2 percentage"
>>> recorded_result("c1cc2[nH]nc3c2c(n1)N(C1CCCC1)CCC3 [Example 23]")
"0 percentage"

Attention now shifts to the item below.
Value lookup for percentage inhibition of BRSK2; key = c1cc2[nH]nc3c2c(n1)N(C1CCC1)CCC3 [Example 22]
0 percentage

###

Recorded measurements of percentage inhibition of SGK1, one per entry
# Measurement Target: SGK1 (Homo sapiens (Human), UniProt O00141)
# Sequence (O00141 whole entry, species assumed): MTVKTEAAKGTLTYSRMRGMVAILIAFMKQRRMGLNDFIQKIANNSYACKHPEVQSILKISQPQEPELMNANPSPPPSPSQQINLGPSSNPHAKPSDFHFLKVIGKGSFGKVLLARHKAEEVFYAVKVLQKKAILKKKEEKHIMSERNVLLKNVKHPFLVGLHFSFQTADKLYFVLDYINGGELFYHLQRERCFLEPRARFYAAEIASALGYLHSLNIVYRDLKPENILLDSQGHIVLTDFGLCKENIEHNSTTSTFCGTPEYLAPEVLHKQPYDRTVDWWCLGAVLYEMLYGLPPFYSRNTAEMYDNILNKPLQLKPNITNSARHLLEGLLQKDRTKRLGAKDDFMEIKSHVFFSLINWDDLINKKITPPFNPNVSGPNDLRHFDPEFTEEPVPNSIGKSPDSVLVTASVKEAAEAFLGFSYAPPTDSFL
# Test Details: SGK1 kinase selectivity assay
# Type: biochemical
# Measurement Setup: 1 μM inhibitor concentration
Supply the numeric figure in percentage, leaving out any unit text.

Completed entries (count: 4):
>>> recorded_result("c1cc2[nH]nc3c2c(n1)N(C1CCC1)CCC3")
13
>>> recorded_result("c1cc2[nH]nc3c2c(n1)N(C1CCOCC1)CCC3")
18
>>> recorded_result("CN1CCC(N2Cc3ccccc3-c3n[nH]c4ccnc2c34)CC1")
10
>>> recorded_result("c1cc2[nH]nc3c2c(n1)N(C1CCCC1)CCC3")
0

Attention now shifts to the item below.
Value lookup for percentage inhibition of SGK1; key = CC(C)n1ncc2c1CN(C1CCN(C)CC1)c1nccc3[nH]nc-2c13
23

###

# Measurement Target: p38aMAPK (Homo sapiens (Human))
# Sequence (Q16539 whole entry): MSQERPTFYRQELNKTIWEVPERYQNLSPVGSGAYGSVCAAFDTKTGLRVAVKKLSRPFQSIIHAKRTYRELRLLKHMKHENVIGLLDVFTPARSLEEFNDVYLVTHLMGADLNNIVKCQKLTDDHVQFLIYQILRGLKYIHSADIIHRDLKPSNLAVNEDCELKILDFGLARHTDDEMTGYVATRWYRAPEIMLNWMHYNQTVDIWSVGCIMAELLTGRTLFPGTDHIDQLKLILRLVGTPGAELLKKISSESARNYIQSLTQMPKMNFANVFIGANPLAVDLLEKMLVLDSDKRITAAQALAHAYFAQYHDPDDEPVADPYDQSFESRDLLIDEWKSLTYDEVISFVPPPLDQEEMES
# Test Details: p38aMAPK kinase selectivity assay
# Type: biochemical
# Measurement Setup: 1 μM inhibitor concentration
Measurement Label: percentage inhibition of p38aMAPK (percentage)
Supply the numeric figure in percentage, leaving out any unit text.

Completed entries (count: 4):
>>> recorded_result("c1cc2[nH]nc3c2c(n1)N(C1CCCC1)CCC3")
0
>>> recorded_result("c1cc2[nH]nc3c2c(n1)N(C1CCC1)CCC3")
4
>>> recorded_result("CN1CCC(N2Cc3ccccc3-c3n[nH]c4ccnc2c34)CC1")
6
>>> recorded_result("c1cc2[nH]nc3c2c(n1)N(C1CCOCC1)CCC3")
0

Value lookup for percentage inhibition of p38aMAPK; key = CC(C)n1ncc2c1CN(C1CCN(C)CC1)c1nccc3[nH]nc-2c13
0

###

# Measurement Target: NEK2a (Homo sapiens (Human), UniProt P51955)
# Sequence (P51955 whole entry, species assumed): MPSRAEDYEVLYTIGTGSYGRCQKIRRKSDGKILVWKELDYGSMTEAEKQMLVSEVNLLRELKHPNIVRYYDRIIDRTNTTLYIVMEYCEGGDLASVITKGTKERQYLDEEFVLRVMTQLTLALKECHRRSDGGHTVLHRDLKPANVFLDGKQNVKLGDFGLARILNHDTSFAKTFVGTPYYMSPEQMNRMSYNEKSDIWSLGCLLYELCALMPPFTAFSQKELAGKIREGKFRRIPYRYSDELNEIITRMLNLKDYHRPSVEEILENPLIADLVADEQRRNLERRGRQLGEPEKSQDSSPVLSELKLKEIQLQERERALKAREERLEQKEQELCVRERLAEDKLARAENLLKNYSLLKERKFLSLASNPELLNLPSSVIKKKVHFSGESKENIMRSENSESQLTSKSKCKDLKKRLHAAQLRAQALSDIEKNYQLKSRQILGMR
# Test Details: NEK2a kinase selectivity assay
# Format: biochemical
# Measurement Setup: 1 μM inhibitor concentration
Recorded measurements of percentage inhibition of NEK2a, one per entry

Value lookup for percentage inhibition of NEK2a; key = c1cc2[nH]nc3c2c(n1)N(C1CCOCC1)CCC3
0 percentage

Please answer likewise for c1cc2[nH]nc3c2c(n1)N(C1CCC1)CCC3
13 percentage

Please answer likewise for CN1CCC(N2Cc3ccccc3-c3n[nH]c4ccnc2c34)CC1
14 percentage

Please answer likewise for c1cc2[nH]nc3c2c(n1)N(C1CCCC1)CCC3
8 percentage

Please answer likewise for CC(C)n1ncc2c1CN(C1CCN(C)CC1)c1nccc3[nH]nc-2c13
0 percentage

###

Recorded measurements of percentage inhibition of SmMLCK, one per entry
# Measurement Target: SmMLCK (Homo sapiens (Human))
# Test Details: SmMLCK kinase selectivity assay
# Type: biochemical
# Measurement Setup: 1 μM inhibitor concentration
Supply the numeric figure in percentage, leaving out any unit text.

Completed entries (count: 3):
>>> recorded_result("CN1CCC(N2Cc3ccccc3-c3n[nH]c4ccnc2c34)CC1 [Example 55]")
16
>>> recorded_result("c1cc2[nH]nc3c2c(n1)N(C1CCC1)CCC3 [Example 22]")
16
>>> recorded_result("c1cc2[nH]nc3c2c(n1)N(C1CCOCC1)CCC3 [Example 29]")
11

Value lookup for percentage inhibition of SmMLCK; key = c1cc2[nH]nc3c2c(n1)N(C1CCCC1)CCC3 [Example 23]
15

Please answer likewise for CC(C)n1ncc2c1CN(C1CCN(C)CC1)c1nccc3[nH]nc-2c13 [Example 68]
9

###

# Measurement Target: PDK1 (Homo sapiens (Human), UniProt O15530)
# Sequence (O15530 whole entry): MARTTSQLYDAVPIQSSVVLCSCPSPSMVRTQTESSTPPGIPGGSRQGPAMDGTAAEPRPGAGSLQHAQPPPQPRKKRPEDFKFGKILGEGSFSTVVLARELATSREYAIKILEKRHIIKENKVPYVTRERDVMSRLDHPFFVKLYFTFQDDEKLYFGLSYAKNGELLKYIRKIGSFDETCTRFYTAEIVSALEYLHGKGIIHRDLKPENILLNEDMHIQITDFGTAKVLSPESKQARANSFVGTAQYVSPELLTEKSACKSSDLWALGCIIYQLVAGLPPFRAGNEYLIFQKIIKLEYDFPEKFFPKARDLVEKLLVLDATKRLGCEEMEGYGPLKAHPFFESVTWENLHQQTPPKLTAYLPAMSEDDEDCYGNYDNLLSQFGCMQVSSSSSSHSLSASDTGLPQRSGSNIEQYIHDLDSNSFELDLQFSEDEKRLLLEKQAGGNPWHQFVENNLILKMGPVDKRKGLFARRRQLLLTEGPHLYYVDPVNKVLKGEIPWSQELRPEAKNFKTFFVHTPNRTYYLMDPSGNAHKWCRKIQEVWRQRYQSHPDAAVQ
# Test Details: PDK1 kinase selectivity assay
# Format: biochemical
# Measurement Setup: 1 μM inhibitor concentration
Assign class by percentage inhibition of PDK1: not lower than 20 percentage means t; lower than 20 percentage means f.

>>> group_label("CC(C)n1ncc2c1CN(C1CCN(C)CC1)c1nccc3[nH]nc-2c13")
"t"
>>> group_label("CN1CCC(N2Cc3ccccc3-c3n[nH]c4ccnc2c34)CC1")
"t"
>>> group_label("c1cc2[nH]nc3c2c(n1)N(C1CCCC1)CCC3")
"f"

Decide: is the reported value of percentage inhibition of PDK1 for c1cc2[nH]nc3c2c(n1)N(C1CCOCC1)CCC3 equal to or greater than 20 percentage?
f

Please answer likewise for c1cc2[nH]nc3c2c(n1)N(C1CCC1)CCC3
f

###

# Measurement Target: CSK (Homo sapiens (Human), UniProt P41240)
# Sequence (P41240 whole entry, species assumed): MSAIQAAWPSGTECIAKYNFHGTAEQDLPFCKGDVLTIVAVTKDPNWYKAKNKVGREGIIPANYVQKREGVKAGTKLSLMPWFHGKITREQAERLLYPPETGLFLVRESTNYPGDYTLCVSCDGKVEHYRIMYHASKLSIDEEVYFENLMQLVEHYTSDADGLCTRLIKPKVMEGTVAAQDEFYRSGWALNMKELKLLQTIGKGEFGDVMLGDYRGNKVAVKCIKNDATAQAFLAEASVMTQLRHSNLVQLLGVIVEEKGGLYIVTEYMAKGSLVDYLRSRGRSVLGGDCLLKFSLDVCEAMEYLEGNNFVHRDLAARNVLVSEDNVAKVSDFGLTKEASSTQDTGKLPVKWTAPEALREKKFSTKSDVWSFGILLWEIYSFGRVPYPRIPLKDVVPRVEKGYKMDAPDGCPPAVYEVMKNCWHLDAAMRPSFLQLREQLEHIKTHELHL
# Test Details: CSK kinase selectivity assay
# Type: biochemical
# Measurement Setup: 1 μM inhibitor concentration
Measurement Label: percentage inhibition of CSK
Please don't drop the unit; write it after the number.

>>> recorded_result("CC(C)n1ncc2c1CN(C1CCN(C)CC1)c1nccc3[nH]nc-2c13")
"0 percentage"

Value lookup for percentage inhibition of CSK; key = c1cc2[nH]nc3c2c(n1)N(C1CCCC1)CCC3
0 percentage

Please answer likewise for CN1CCC(N2Cc3ccccc3-c3n[nH]c4ccnc2c34)CC1
0 percentage

Please answer likewise for c1cc2[nH]nc3c2c(n1)N(C1CCOCC1)CCC3
0 percentage

Please answer likewise for c1cc2[nH]nc3c2c(n1)N(C1CCC1)CCC3
1 percentage

Recorded values, source patent US10918645B2.
